- Assay procedure: WST-1 viability of NHDF cells treated with Dox with or without ORC
- Type: cell-based, Human
- Measurement setup: human, NHDF cells (normal human dermal fibroblasts), Dox 50 μM, with ORC (¼ Nuknit of 8 mm), NHDF cells, 16-18 hours, WST-1; read-out: With ORC relative reduction of viability (%)
Counter-ions that a name gives are not always drawn.
Readout: cytotoxicity at 50 μM (%)
Response body: numeric value in %, unit text excluded.

For the compound shown here, COc1cccc2c1C(=O)c1c(O)c3c(c(O)c1C2=O)C[C@@](O)(C(=O)CO)C[C@@H]3O[C@H]1C[C@H](N)[C@H](O)[C@H](C)O1 [Dox, Doxorubicin hydrochloride] , give the reported cytotoxicity at 50 μM.
80

* * *

- Assay procedure: WST-1 viability of NHDF cells treated with Dox with or without ORC
- Assay type: cell-based, Human
- Measurement setup: human, NHDF cells (normal human dermal fibroblasts), Dox 5 μM, without ORC, NHDF cells, 16-18 hours, WST-1; read-out: Without ORC relative reduction of viability (%)
Counter-ions that a name gives are not always drawn.
Readout: cytotoxicity at 5 μM

For the compound shown here, COc1cccc2c1C(=O)c1c(O)c3c(c(O)c1C2=O)C[C@@](O)(C(=O)CO)C[C@@H]3O[C@H]1C[C@H](N)[C@H](O)[C@H](C)O1 [Dox, Doxorubicin hydrochloride] , give the reported cytotoxicity at 5 μM.
~30%

* * *

- Assay procedure: WST-1 viability of NHDF cells treated with Dox with or without ORC
- Format: cell-based, Human
- Measurement setup: human, NHDF cells (normal human dermal fibroblasts), Dox 50 μM, without ORC, NHDF cells, 16-18 hours, WST-1; read-out: Without ORC relative reduction of viability (%)
Where a name gives a salt, the structure may show the parent alone.
Readout: cytotoxicity at 50 μM (%)
Response body: numeric value in %, unit text excluded.

For the compound shown here, COc1cccc2c1C(=O)c1c(O)c3c(c(O)c1C2=O)C[C@@](O)(C(=O)CO)C[C@@H]3O[C@H]1C[C@H](N)[C@H](O)[C@H](C)O1 [Dox, Doxorubicin hydrochloride] , give the reported cytotoxicity at 50 μM.
65

* * *

- Assay procedure: WST-1 viability of NHDF cells treated with Dox with or without ORC
- Type: cell-based, Human
- Measurement setup: human, NHDF cells (normal human dermal fibroblasts), Dox 25 μM, with ORC (¼ Nuknit of 8 mm), NHDF cells, 16-18 hours, WST-1; read-out: With ORC relative reduction of viability (%)
Structures can show the parent of a compound that is named as a salt.
Readout: cytotoxicity at 25 μM

For the compound shown here, COc1cccc2c1C(=O)c1c(O)c3c(c(O)c1C2=O)C[C@@](O)(C(=O)CO)C[C@@H]3O[C@H]1C[C@H](N)[C@H](O)[C@H](C)O1 [Dox, Doxorubicin hydrochloride] , give the reported cytotoxicity at 25 μM.
~74%

Source: patent US11986489B2
